- Study system: Human recombinant Histone Deacetylase 8 (HDAC8) (Homo sapiens (Human))
- Sequence (Q9BY41 whole entry): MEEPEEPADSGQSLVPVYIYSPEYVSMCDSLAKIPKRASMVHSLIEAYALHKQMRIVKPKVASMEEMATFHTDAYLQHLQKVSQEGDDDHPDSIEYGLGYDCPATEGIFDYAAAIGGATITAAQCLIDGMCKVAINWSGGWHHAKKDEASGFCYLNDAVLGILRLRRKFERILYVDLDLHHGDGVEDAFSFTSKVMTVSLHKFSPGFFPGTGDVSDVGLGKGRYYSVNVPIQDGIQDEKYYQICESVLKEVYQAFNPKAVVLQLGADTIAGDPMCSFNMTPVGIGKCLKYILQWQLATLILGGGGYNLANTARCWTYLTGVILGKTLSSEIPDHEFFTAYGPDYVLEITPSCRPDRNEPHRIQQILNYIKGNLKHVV
- Test: HDAC8 Enzymatic Assay (HDAC-Glo I/II luminescence)
- Type: biochemical
- Experimental context: class symbols, Table 14; read-out: HDAC8 IC50
pIC50: −log10 of the molar value.
Give pIC50 for every item shown.

Past entries and their recorded results:
Cn1nccc1-c1nccc2cn(C(Cc3ccccc3)C(=O)NO)nc12 (stereo not drawn) ... ≥ 7.30
O=C(NO)C(Cc1ccccc1)n1nc2c(Cl)cccc2c1I (stereo not drawn) ... 6.30 to 6.70

# batch size: 7; output pIC50 per entry
1. O=C(NO)C(Cc1ccccc1)c1cnc2c(-c3ccncc3)cccn12 (stereo not drawn)
2. COC(=O)C(Cc1ccccc1)n1cc2cccc(C(=O)N3CCC(F)(F)CC3)c2n1 (stereo not drawn)
3. Cn1nccc1-c1ccc2nn(C(Cc3ccccc3)C(=O)NO)cc2c1 (stereo not drawn)
4. O=C(NO)C(Cc1ccccc1)n1cc2nc(Cl)ccc2n1 (stereo not drawn)
5. CN(C)C(=O)c1ccc(-c2ccc3c(cnn3C(Cc3ccccc3)C(=O)NO)c2)cc1 (stereo not drawn)
6. O=C(NO)C(Cc1ccccc1)n1ncc2cc(-c3cncnc3)ccc21 (stereo not drawn)
7. Cn1nccc1-c1cccc2cn(C(Cc3ccccc3)C(=O)NO)nc12 (stereo not drawn)

["6.30 to 6.70", "6.30 to 6.70", "6.30 to 6.70", "< 6.30", "6.30 to 6.70", "6.70 to 7.30", "6.70 to 7.30"]
